- STUDY SYSTEM: O-acylisopeptide of Aβ (Homo sapiens)
- Construct: containing O-acylisopeptide of Aβ (10 μM)
- Sequence (P05067 672-713 limits assumed): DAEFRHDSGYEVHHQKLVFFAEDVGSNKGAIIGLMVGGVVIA
- MEASUREMENT DESCRIPTION: Aβ aggregation inhibition test (thioflavine T fluorescence)
- Assay type: biochemical
- RECORDED CONDITIONS: final sample concentration 30 μM, Aβ O-acylisopeptide 10 μM, pH 7.4, 37° C., 1% DMSO; DMSO control defined as 100
PROPERTY LABEL: Aggregation inhibition ratio (lower value means stronger inhibitory activity)
Note: the reply should be a number with no unit written.

Q: What value of Aggregation inhibition ratio (lower value means stronger inhibitory activity) has been recorded for this entry: CC(C)CCNC(=O)c1cc(Cc2ccccc2)cc(Oc2ccccc2)n1 [Compound 1, 4-Benzyl-6-phenoxy-N-isoamylpicolinamide]
A: 61

Q: What value of Aggregation inhibition ratio (lower value means stronger inhibitory activity) has been recorded for this entry: CC(C)CCNC(=O)c1cc(Cc2ccccc2)cc(OC2CCCCC2)n1 [Compound 4]
A: 60

Q: What value of Aggregation inhibition ratio (lower value means stronger inhibitory activity) has been recorded for this entry: CC(C)CCNC(=O)c1cc(Cc2ccc3ccccc3c2)cc(Oc2ccccc2)n1 [Compound 2]
A: 52

Q: What value of Aggregation inhibition ratio (lower value means stronger inhibitory activity) has been recorded for this entry: CC(C)CCCNC(=O)c1cc(Cc2ccccc2)cc(Oc2ccccc2)n1 [Compound 3]
A: 58

Q: What value of Aggregation inhibition ratio (lower value means stronger inhibitory activity) has been recorded for this entry: CC(C)CCNC(=O)c1cc(Cc2ccccc2)cc(OCc2ccccc2)n1 [Compound 5]
A: 75

Q: What value of Aggregation inhibition ratio (lower value means stronger inhibitory activity) has been recorded for this entry: O=C(NC1C2CC3CC(C2)CC1C3)c1nc(Cc2ccccc2)cc(Oc2ccccc2)n1 (stereo not shown) [Compound 12]
A: 40

Q: What value of Aggregation inhibition ratio (lower value means stronger inhibitory activity) has been recorded for this entry: CC(C)CCOc1cc(Cc2ccccc2)cc(C(=O)NCCc2ccccc2)n1 [Compound 6]
A: 60
